- Assay Target: Gonadotropin-releasing hormone receptor (Rattus norvegicus)
- Assay Info: In vitro binding affinity of Gonadotropin-releasing hormone antagonist was measured in rat pituitary cell membranes
- Parameters: species or system Pituitary gland cell, Membrane
Property Name: log10 Kd (log10 of the value in nM)
log10 Kd, nM

The following compounds have reported results that may help.
CC(C)C[C@H](NC(=O)[C@@H](CCCNc1n[nH]c(N)n1)NC(=O)[C@H](CCCNc1n[nH]c(N)n1)NC(=O)[C@H](CO)NC(=O)[C@H](Cc1c[nH]c2ccccc12)NC(=O)[C@H](Cc1c[nH]cn1)NC(=O)[C@@H]1CCC(=O)N1)C(=O)N[C@@H](CCCCNC(C)C)C(=O)N1CCC[C@H]1C(=O)N[C@H](C)C(N)=O = -0.68
CCCC/N=C(\NC#N)NCCC[C@H](NC(=O)[C@H](CO)NC(=O)[C@H](Cc1c[nH]c2ccccc12)NC(=O)[C@H](Cc1c[nH]cn1)NC(=O)[C@@H]1CCC(=O)N1)C(=O)N[C@H](CCCN/C(=N/CCCC)NC#N)C(=O)N[C@@H](CC(C)C)C(=O)N[C@@H](CCCCNC(C)C)C(=O)N1CCC[C@H]1C(=O)N[C@H](C)C(N)=O = 0.32
C/N=C(\NC#N)NCCCC[C@@H](NC(=O)[C@H](CCCCN/C(=N\C)NC#N)NC(=O)[C@H](CO)NC(=O)[C@H](Cc1c[nH]c2ccccc12)NC(=O)[C@H](Cc1c[nH]cn1)NC(=O)[C@@H]1CCC(=O)N1)C(=O)N[C@@H](CC(C)C)C(=O)N[C@@H](CCCCNC(C)C)C(=O)N1CCC[C@H]1C(=O)N[C@H](C)C(N)=O = -0.62
CCCCCC/N=C(\NC#N)NCCCC[C@H](NC(=O)[C@H](CO)NC(=O)[C@H](Cc1c[nH]c2ccccc12)NC(=O)[C@H](Cc1c[nH]cn1)NC(=O)[C@@H]1CCC(=O)N1)C(=O)N[C@H](CCCCN/C(=N/CCCCCC)NC#N)C(=O)N[C@@H](CC(C)C)C(=O)N[C@@H](CCCCNC(C)C)C(=O)N1CCC[C@H]1C(=O)N[C@H](C)C(N)=O = 0.52

Per the record, "CC(C)C[C@H](NC(=O)[C@@H](CCCCNC(=NC#N)NCc1ccccn1)NC(=O)[C@H](CCCCNC(=NC#N)NCc1ccccn1)NC(=O)[C@H](CO)NC(=O)[C@H](Cc1c[nH]c2ccccc12)NC(=O)[C@H](Cc1cnc[nH]1)NC(=O)[C@@H]1CCC(=O)N1)C(=O)N[C@@H](CCCCNC(C)C)C(=O)N1CCC[C@H]1C(=O)N[C@H](C)C(N)=O" has log10 Kd of -0.57

Per the record, "CCCCNC(=NC#N)NCCCC[C@@H](NC(=O)[C@H](Cc1ccc(O)cc1)NC(=O)[C@H](CO)NC(=O)[C@@H](Cc1cccnc1)NC(=O)[C@H](Cc1cnc[nH]1)NC(=O)[C@@H]1CCC(=O)N1)C(=O)N[C@@H](CC(C)C)C(=O)N[C@@H](CCCNC(=N)N)C(=O)N1CCC[C@H]1C(=O)N[C@H](C)C(N)=O" has log10 Kd of 0.23

---

- Assay Target: Gonadotropin-releasing hormone receptor (Rattus norvegicus) (UniProt P30969)
- Sequence (P30969 whole entry, looked up): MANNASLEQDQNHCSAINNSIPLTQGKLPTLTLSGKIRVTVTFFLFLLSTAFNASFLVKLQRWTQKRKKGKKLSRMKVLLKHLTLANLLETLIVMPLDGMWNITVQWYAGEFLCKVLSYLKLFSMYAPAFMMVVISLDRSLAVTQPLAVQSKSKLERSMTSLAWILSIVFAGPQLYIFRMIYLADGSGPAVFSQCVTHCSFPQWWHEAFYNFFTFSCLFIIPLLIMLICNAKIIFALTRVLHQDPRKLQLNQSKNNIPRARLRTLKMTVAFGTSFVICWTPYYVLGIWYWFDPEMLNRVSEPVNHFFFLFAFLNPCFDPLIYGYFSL
- Assay Info: Antagonist potency at GnRH receptor relative to a standard ([Ac-delta3Pro, DFpa2, DTrp3,6]GnRH).
Property Name: Relative potency
Respond using a number only.

CCCC/N=C(\NC#N)NCCCC[C@@H](NC(=O)[C@H](Cc1c[nH]cn1)NC(=O)[C@@H]1CCC(=O)N1)C(=O)N[C@@H](CO)C(=O)N[C@@H](Cc1ccc(O)cc1)C(=O)N[C@H](CCCN=C(N)N)C(=O)N[C@@H](CC(C)C)C(=O)N[C@@H](CCCCNC(C)C)C(=O)N1CCC[C@H]1C(=O)N[C@H](C)C(N)=O = 1.4
CC(C)C[C@H](NC(=O)[C@@H](CCCCNc1n[nH]c(N)n1)NC(=O)[C@H](CCCCNc1n[nH]c(N)n1)NC(=O)[C@H](CO)NC(=O)[C@H](Cc1c[nH]c2ccccc12)NC(=O)[C@H](Cc1c[nH]cn1)NC(=O)[C@@H]1CCC(=O)N1)C(=O)N[C@@H](CCCCNC(C)C)C(=O)N1CCC[C@H]1C(=O)N[C@H](C)C(N)=O = 0.23

Per the record, "CC(C)C[C@H](NC(=O)[C@@H](CCCC/N=C(\NC#N)NC1CCCCC1)NC(=O)[C@H](CCCC/N=C(\NC#N)NC1CCCCC1)NC(=O)[C@H](CO)NC(=O)[C@H](Cc1c[nH]c2ccccc12)NC(=O)[C@H](Cc1c[nH]cn1)NC(=O)[C@@H]1CCC(=O)N1)C(=O)N[C@@H](CCCCNC(C)C)C(=O)N1CCC[C@H]1C(=O)N[C@H](C)C(N)=O" has Relative potency of 0.42

---

- Assay Target: Gonadotropin-releasing hormone receptor (Rattus norvegicus, UniProt P30969)
- Sequence (P30969 whole entry): as the sequence (P30969 whole entry, looked up) above
- Assay Info: In vitro binding affinity of Gonadotropin-releasing hormone antagonist was measured in rat pituitary cell membranes
- Design: species or system Pituitary gland cell, Membrane
Where a SMILES comes first, the peptide text is derived from it. [ ]: non-standard residue; d: D form. The star is where a group is joined. Triazol3yl(1,2,4-5-NH2) = Nc1nc(*)n[nH]1; dPhe(4-Cl) = N[C@H](Cc1ccc(Cl)cc1)C(=O)O; d2Nal = N[C@H](Cc1ccc2ccccc2c1)C(=O)O; Lys(iPr) = CC(C)NCCCC[C@H](N)C(=O)O; d3Pal = N[C@H](Cc1cccnc1)C(=O)O
Property Name: Kd (nM)
Entry rule: numbers only, all in nM.

The following molecules have reported results that may help.
CC(C)C[C@H](NC(=O)[C@@H](Cc1cccnc1)NC(=O)[C@H](Cc1ccc(O)cc1)NC(=O)[C@H](CO)NC(=O)[C@@H](Cc1cccnc1)NC(=O)[C@H](Cc1cnc[nH]1)NC(=O)[C@@H]1CCC(=O)N1)C(=O)N[C@@H](CCCCNC(C)C)C(=O)N1CCC[C@H]1C(=O)N[C@H](C)C(N)=O = 0.08
CC(=O)N[C@H](Cc1ccc2ccccc2c1)C(=O)N[C@H](Cc1ccc(Cl)cc1)C(=O)N[C@H](Cc1cccnc1)C(=O)N[C@@H](CO)C(=O)N[C@@H](CCCCNc1n[nH]c(N)n1)C(=O)N[C@H](CCCCNc1n[nH]c(N)n1)C(=O)N[C@@H](CC(C)C)C(=O)N[C@@H](CCCCNC(C)C)C(=O)N1CCC[C@H]1C(=O)N[C@H](C)C(N)=O (Ac-[d2Nal][dPhe(4-Cl)][d3Pal]SK(Triazol3yl(1,2,4-5-NH2))[dK](Triazol3yl(1,2,4-5-NH2))L[Lys(iPr)]P[dA]-NH2) = 0.48
CCCC/N=C(/NCCCC[C@H](NC(=O)[C@H](CC(C)C)NC(=O)[C@@H](CCCCNC(=O)c1cccnc1)NC(=O)[C@H](CCCCNC(=O)c1cccnc1)NC(=O)[C@H](CO)NC(=O)[C@H](Cc1c[nH]c2ccccc12)NC(=O)[C@H](Cc1c[nH]cn1)NC(=O)[C@@H]1CCC(=O)N1)C(=O)N1CCC[C@H]1C(=O)N[C@H](C)C(N)=O)NC(N)=O = 0.11
CCCC/N=C(\NC#N)NCCCC[C@H](NC(=O)[C@H](CC(C)C)NC(=O)[C@@H](CCCCNC(=O)c1cccnc1)NC(=O)[C@H](CCCCNC(=O)c1cccnc1)NC(=O)[C@H](CO)NC(=O)[C@H](Cc1c[nH]c2ccccc12)NC(=O)[C@H](Cc1c[nH]cn1)NC(=O)[C@@H]1CCC(=O)N1)C(=O)N1CCC[C@H]1C(=O)N[C@H](C)C(N)=O = 0.45

Per the record, "CC(C)C[C@H](NC(=O)[C@@H](CCCC/N=C(/NC#N)NC(C)C)NC(=O)[C@H](CCCC/N=C(/NC#N)NC(C)C)NC(=O)[C@H](CO)NC(=O)[C@H](Cc1c[nH]c2ccccc12)NC(=O)[C@H](Cc1c[nH]cn1)NC(=O)[C@@H]1CCC(=O)N1)C(=O)N[C@@H](CCCCNC(C)C)C(=O)N1CCC[C@H]1C(=O)N[C@H](C)C(N)=O" has Kd of 0.32

Per the record, "CC(C)C[C@H](NC(=O)[C@@H](CCC/N=C(\NC#N)NCc1ccccn1)NC(=O)[C@H](CCC/N=C(\NC#N)NCc1ccccn1)NC(=O)[C@H](CO)NC(=O)[C@H](Cc1c[nH]c2ccccc12)NC(=O)[C@H](Cc1c[nH]cn1)NC(=O)[C@@H]1CCC(=O)N1)C(=O)N[C@@H](CCCCNC(C)C)C(=O)N1CCC[C@H]1C(=O)N[C@H](C)C(N)=O" has Kd of 0.41

Per the record, "CCCC/N=C(\NC#N)NCCCC[C@@H](NC(=O)[C@H](Cc1c[nH]cn1)NC(=O)[C@@H]1CCC(=O)N1)C(=O)N[C@@H](CO)C(=O)N[C@@H](Cc1ccc(O)cc1)C(=O)N[C@H](CCCN=C(N)N)C(=O)N[C@@H](CC(C)C)C(=O)N[C@@H](CCCCNC(C)C)C(=O)N1CCC[C@H]1C(=O)N[C@H](C)C(N)=O" has Kd of 1.2
